Recorded Kd values for a group of binders are listed next.
Biological target: moesin FERM domain, GST tag cleaved (UniProt P26038 2-295)
Sequence (P26038 2-295): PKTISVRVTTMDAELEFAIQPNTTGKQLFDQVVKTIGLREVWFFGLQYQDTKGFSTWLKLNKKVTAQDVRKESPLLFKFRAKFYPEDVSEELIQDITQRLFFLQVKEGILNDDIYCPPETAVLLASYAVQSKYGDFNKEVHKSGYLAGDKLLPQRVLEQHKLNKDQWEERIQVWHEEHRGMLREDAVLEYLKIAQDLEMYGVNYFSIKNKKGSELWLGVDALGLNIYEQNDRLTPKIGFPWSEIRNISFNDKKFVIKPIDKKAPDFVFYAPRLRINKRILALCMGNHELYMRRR
Test: fluorescence polarisation

[
  {
    "binder": "TNGYYSVNTFKEHHSTPTI [KIRREL3 peptide with N-terminal extension of three amino acids (634-652), unlabeled]",
    "Kd (nM)": 120
  },
  {
    "binder": "YYSVNTFKEHHSTPTI [KIRREL3_(637-652), unlabeled peptide]",
    "Kd (nM)": 90
  }
]
